Data origin: patent US20220064275A1

Reported pKd values for the following binders.
target: T1, human LTBP1-proTGFβ1 complex (human, UniProt Q14766 873-1507); assay: BLI (Octet)
T1 construct: range 873-1507; biotinylated in Octet and MSD-SET; also called hLTBP1-proTGFβ1; hLTBP1
T1 sequence (Q14766 873-1507 limits assumed, chain 1 of 2): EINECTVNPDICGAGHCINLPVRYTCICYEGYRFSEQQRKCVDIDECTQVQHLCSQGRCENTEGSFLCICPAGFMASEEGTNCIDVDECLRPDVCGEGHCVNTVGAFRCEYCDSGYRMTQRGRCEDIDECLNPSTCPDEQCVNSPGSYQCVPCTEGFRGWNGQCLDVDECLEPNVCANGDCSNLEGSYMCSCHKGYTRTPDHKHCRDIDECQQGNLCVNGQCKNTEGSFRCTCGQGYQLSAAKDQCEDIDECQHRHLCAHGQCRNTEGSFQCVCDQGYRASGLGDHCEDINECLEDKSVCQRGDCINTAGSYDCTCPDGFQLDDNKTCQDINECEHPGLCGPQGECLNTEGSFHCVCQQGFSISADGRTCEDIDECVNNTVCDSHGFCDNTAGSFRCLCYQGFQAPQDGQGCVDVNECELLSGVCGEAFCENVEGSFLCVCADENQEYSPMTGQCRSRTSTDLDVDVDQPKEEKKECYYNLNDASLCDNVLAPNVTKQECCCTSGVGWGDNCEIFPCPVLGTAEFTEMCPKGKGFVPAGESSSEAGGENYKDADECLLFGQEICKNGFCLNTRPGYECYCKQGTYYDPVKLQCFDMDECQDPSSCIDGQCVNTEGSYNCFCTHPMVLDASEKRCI
T1 sequence (chain, as listed by the source limits assumed, chain 2 of 2): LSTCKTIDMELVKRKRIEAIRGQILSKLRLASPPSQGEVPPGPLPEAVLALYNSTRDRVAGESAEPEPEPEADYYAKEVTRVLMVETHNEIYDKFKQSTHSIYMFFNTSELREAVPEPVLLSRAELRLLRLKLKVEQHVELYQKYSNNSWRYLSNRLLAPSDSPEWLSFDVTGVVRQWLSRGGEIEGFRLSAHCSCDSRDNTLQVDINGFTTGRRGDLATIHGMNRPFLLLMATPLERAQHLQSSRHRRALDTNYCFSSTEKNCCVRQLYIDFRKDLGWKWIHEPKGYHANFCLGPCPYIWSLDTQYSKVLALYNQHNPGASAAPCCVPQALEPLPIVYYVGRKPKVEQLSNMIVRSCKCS
Reminder that pKd means the negative base-10 logarithm of the concentration expressed in mol/L.

Ab25 (antibody, V domains shown) VH: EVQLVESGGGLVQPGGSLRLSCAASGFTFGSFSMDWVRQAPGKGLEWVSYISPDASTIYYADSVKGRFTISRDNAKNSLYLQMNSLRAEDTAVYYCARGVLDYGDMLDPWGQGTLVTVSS VL: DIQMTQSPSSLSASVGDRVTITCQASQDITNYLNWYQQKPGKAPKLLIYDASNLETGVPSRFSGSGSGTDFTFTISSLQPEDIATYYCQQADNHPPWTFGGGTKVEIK = 9.66

Req: Recorded pKd of Ab22 (antibody, IgG4, V domains shown) VH: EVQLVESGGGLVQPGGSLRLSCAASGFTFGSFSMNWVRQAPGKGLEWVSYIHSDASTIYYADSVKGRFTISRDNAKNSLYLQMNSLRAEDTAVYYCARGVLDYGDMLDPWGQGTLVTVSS VL: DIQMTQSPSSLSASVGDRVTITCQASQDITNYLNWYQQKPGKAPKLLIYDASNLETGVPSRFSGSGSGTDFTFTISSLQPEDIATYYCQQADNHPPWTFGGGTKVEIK , please.
Resp: 9.50
